Consider the following compounds and their measured IC50 readings.
- measured-target: serotonin transporter (Homo sapiens, UniProt P31645)
- Sequence (P31645 whole entry): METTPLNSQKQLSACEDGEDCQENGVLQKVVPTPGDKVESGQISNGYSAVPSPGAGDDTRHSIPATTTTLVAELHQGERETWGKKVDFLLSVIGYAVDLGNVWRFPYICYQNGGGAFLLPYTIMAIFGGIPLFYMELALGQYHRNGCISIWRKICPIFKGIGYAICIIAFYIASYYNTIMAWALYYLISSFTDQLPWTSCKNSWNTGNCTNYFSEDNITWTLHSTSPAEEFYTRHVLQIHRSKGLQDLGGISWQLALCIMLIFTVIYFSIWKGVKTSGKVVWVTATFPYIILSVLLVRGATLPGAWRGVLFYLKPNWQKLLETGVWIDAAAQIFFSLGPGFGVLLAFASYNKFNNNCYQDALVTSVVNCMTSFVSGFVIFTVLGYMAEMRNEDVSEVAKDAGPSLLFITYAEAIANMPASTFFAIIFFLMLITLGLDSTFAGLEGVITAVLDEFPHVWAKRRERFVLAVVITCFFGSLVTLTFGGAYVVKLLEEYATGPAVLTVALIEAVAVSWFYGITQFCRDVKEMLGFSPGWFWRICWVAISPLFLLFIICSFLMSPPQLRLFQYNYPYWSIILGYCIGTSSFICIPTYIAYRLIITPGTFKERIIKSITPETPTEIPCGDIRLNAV
- assay-notes: 5-HT uptake: displacement of serotonin ligands in vitro (methods of Gu et al.)
- Assay type: binding
- experimental-context: displacement of serotonin ligands in vitro; read-out: 5-HT Uptake, Uptake Profile (IC50)

CO[C@H](CN1CCC[C@@H](COc2ccc(C(F)(F)F)cc2)C1)C1(c2ccc(Cl)cc2)CCC1; < 1 µM
OC(CN1CCCC(CCc2ccccc2)C1)c1ccc(Cl)cc1 (single isomer, unassigned) [compound 144]; < 0.01 µM
OC1CCCN(CC2(c3ccc(Cl)cc3)CCC2)C1 (stereo not shown); > 1 µM

q: Query: IC50; subject: OC(CN1CCCC(CCc2ccc(C(F)(F)F)cc2)C1)c1ccc(Cl)cc1 (single isomer, unassigned) [compound 152]
a: < 0.1 µM

q: Please report the recorded IC50 for "CO[C@@H](CN1CCC[C@H](COc2ccc(C(F)(F)F)cc2)C1)C1(c2ccc(Cl)cc2)CCC1" .
a: < 1 µM

q: Which IC50 value is on record for "O[C@@H](CN1CCC[C@@H](COc2ccc(C(F)(F)F)cc2)C1)C1(c2ccc(Cl)cc2)CCC1" ?
a: > 1 µM

q: Form field: reported IC50 of CN(C)CC(Oc1ccc(C(F)(F)F)cc1)C1CCCN(CC2(c3ccc(Cl)cc3)CCC2)C1 (racemic) [compound 175]
a: < 1 µM
